test: Glass transition temperature (Tg) of derivatized carbohydrates, by DSC; type: physicochemical; settings: derivatized carbohydrate alone, Tables 1-4
Threshold-based label: Tg(° C.) under 40 °C gives TRUE, Tg(° C.) not under 40 °C gives FALSE.

Examples from the recorded data:
compound	qualitative.label
CC(C)C(=O)OCC1O[C@H](OCC2O[C@@H](O[C@]3(COC(=O)C(C)C)O[C@H](COC(=O)C(C)C)[C@@H](OC(=O)C(C)C)[C@H]3OC(=O)C(C)C)C(OC(=O)C(C)C)[C@@H](OC(=O)C(C)C)[C@@H]2OC(=O)C(C)C)C(OC(=O)C(C)C)[C@@H](OC(=O)C(C)C)[C@H]1OC(=O)C(C)C (stereo partly drawn) [Raffinose undeca-isobutyrate]	TRUE
CC(=O)OC[C@H]1O[C@@H](O[C@H]2[C@H](OC(C)=O)[C@@H](OC(C)=O)C(OC(=O)C(C)C)O[C@@H]2COC(C)=O)[C@H](OC(C)=O)[C@@H](OC(C)=O)[C@H]1OC(C)=O (stereo partly drawn) [Lactose isobutyrate heptaacetate]	FALSE
CCC(C)(C)C(=O)OC[C@H]1O[C@H](O[C@H]2O[C@H](COC(=O)C(C)(C)CC)[C@@H](OC(C)=O)[C@H](OC(C)=O)[C@H]2OC(C)=O)[C@H](OC(C)=O)[C@@H](OC(C)=O)[C@@H]1OC(C)=O	FALSE
CCC(=O)OCC1O[C@@H](O[C@H]2OC(COC(=O)CC)[C@@H](OC(=O)CC)[C@H](OC(=O)CC)C2OC(=O)CC)C(OC(=O)CC)C(OC(=O)CC)[C@H]1OC(=O)CC (stereo partly drawn) [Trehalose octapropionate, reference compound]	TRUE
CC(=O)OC1C(COC(=O)C(C)(C)C)OC(OC2OC(COC(=O)C(C)(C)C)C(OC(C)=O)C(OC(C)=O)C2OC(C)=O)C(OC(C)=O)C1OC(C)=O (stereo not drawn) [Trehalose 6,6′ dipivalate hexaacetate]	FALSE

Record CC(=O)OC1C(COC(=O)C(C)C)OC(OC2OC(COC(=O)C(C)C)C(OC(C)=O)C(OC(C)=O)C2OC(C)=O)C(OC(C)=O)C1OC(C)=O (stereo not drawn) [Trehalose 6,6′-diisobutyrate hexaacetate] : is its Tg(° C.) strictly below 40 °C?
FALSE

Is the reported Tg(° C.) for CCC(CC)C(=O)OC[C@H]1O[C@H](O[C@H]2O[C@H](COC(=O)C(CC)CC)[C@@H](OC(C)=O)[C@H](OC(C)=O)[C@H]2OC(C)=O)[C@H](OC(C)=O)[C@@H](OC(C)=O)[C@@H]1OC(C)=O strictly below 40 °C?
TRUE

Check if Tg(° C.) falls below 40 °C for CO[C@@H]1O[C@H](COC(C)=O)[C@@H](O[C@@H]2O[C@H](COC(C)=O)[C@@H](OC(C)=O)[C@H](OC(C)=O)[C@H]2OC(C)=O)[C@H](OC(C)=O)[C@H]1OC(C)=O [β-Cellobiose methyl heptaacetate] .
FALSE

Regarding CCC(=O)OC1C(COC(C)=O)OC(OC2OC(COC(C)=O)C(OC(=O)CC)C(OC(C)=O)C2OC(C)=O)C(OC(C)=O)C1OC(C)=O (stereo not drawn) [Trehalose 4,4′-dipropionate hexaactetate] , kindly confirm whether its Tg(° C.) is beneath 40 °C.
FALSE

====

assay: Glass transition temperature (Tg) of derivatized carbohydrates, by DSC; type: physicochemical; conditions: derivatized carbohydrate alone, Tables 1-4
parameter.measured: Tg(° C.) (°C)
Answers are plain numbers, in °C.

compound	quantity.unit	Tg(° C.)
CC(=O)OCC1OC(OC2OC(COC(C)=O)C(OC(=O)C(C)C)C(OC(C)=O)C2OC(C)=O)C(OC(C)=O)C(OC(C)=O)C1OC(=O)C(C)C (centres unmarked) [Trehalose 4,4′-diisobutyrate hexaacetate]	°C	41
CC(=O)O[C@@H]1[C@@H](OC(C)=O)[C@@H](O[C@H]2O[C@H](COC(=O)CC(C)(C)C)[C@@H](OC(C)=O)[C@H](OC(C)=O)[C@H]2OC(C)=O)O[C@H](COC(=O)CC(C)(C)C)[C@H]1OC(C)=O	°C	50
CCC(=O)OC[C@H]1O[C@@H](O[C@H]2[C@H](OC(=O)CC)[C@@H](OC(=O)CC)[C@H](OC(=O)CC)O[C@@H]2COC(=O)CC)[C@H](OC(=O)CC)[C@@H](OC(=O)CC)[C@@H]1OC(=O)CC [β-Cellobiose octapropionate, reference compound]	°C	15

Below are some compounds; for each one, tell me its Tg(° C.).
1. CC(C)(C)C(=O)OC[C@H]1O[C@H](O[C@H]2O[C@H](COC(=O)C(C)(C)C)[C@@H](OC(=O)C(C)(C)C)[C@H](OC(=O)C(C)(C)C)[C@H]2OC(=O)C(C)(C)C)[C@H](OC(=O)C(C)(C)C)[C@@H](OC(=O)C(C)(C)C)[C@@H]1OC(=O)C(C)(C)C [Trehalose octapivalate]
2. CC(=O)O[C@@H]1[C@@H](OC(=O)CC(C)(C)C)[C@@H](OC(=O)CC(C)(C)C)O[C@H](COC(=O)CC(C)(C)C)[C@H]1O[C@@H]1O[C@H](COC(=O)CC(C)(C)C)[C@H](OC(=O)CC(C)(C)C)[C@H](OC(=O)CC(C)(C)C)[C@H]1OC(=O)CC(C)(C)C
3. CC(=O)OC[C@H]1O[C@@H](O[C@H]2[C@H](OC(C)=O)[C@@H](OC(C)=O)[C@H](OC(C)=O)O[C@@H]2COC(C)=O)[C@H](OC(C)=O)[C@@H](OC(C)=O)[C@H]1OC(C)=O [β-Lactose octaacetate, reference compound]
4. CC(=O)OC[C@H]1O[C@@H](O[C@H]2[C@H](OC(C)=O)[C@@H](OC(C)=O)C(OC(C)=O)O[C@@H]2COC(C)=O)[C@H](OC(C)=O)[C@@H](OC(C)=O)[C@H]1OC(C)=O (stereo partly drawn) [α, β-Lactose octaacetate, reference compound]
5. CC(=O)OCC1OC(OC2C(COC(C)=O)OC(OC(C)=O)C(OC(C)=O)C2OC(C)=O)C(OC(C)=O)C(OC(C)=O)C1OC(C)=O (stereo not drawn) [α-Cellobiose octaacetate, reference compound]

81
48
63
67
65

====

test: Glass transition temperature (Tg) of derivatized carbohydrates, by DSC; format: physicochemical; conditions: derivatized carbohydrate alone, Tables 1-4
Criterion: Tg(° C.) strictly less than 50 °C. Met: Satisfied. Not met: Not satisfied.

Solved entries (count: 5):
molecule	qualitative.label
CC(C)(C)CC(=O)OC[C@H]1O[C@H](O[C@H]2O[C@H](COC(=O)CC(C)(C)C)[C@@H](OC(=O)CC(C)(C)C)[C@H](OC(=O)CC(C)(C)C)[C@H]2OC(=O)CC(C)(C)C)[C@H](OC(=O)CC(C)(C)C)[C@@H](OC(=O)CC(C)(C)C)[C@@H]1OC(=O)CC(C)(C)C [Trehalose octa-3,3-dimethylbutyrate]	Satisfied
CCC(=O)OC[C@H]1O[C@H](O[C@H]2O[C@H](COC(=O)CC)[C@@H](OC(C)=O)[C@H](OC(C)=O)[C@H]2OC(C)=O)[C@H](OC(C)=O)[C@@H](OC(C)=O)[C@@H]1OC(C)=O [Trehalose 6,6′-dipropionate hexaactetate]	Satisfied
CC(C)(C)C(=O)OC[C@H]1O[C@@H](O[C@H]2[C@H](OC(=O)C(C)(C)C)[C@@H](OC(=O)C(C)(C)C)[C@H](OC(=O)C(C)(C)C)O[C@@H]2COC(=O)C(C)(C)C)[C@H](OC(=O)C(C)(C)C)[C@@H](OC(=O)C(C)(C)C)[C@H]1OC(=O)C(C)(C)C [β-Lactose octapivalate]	Not satisfied
CC(=O)OC[C@H]1O[C@H](O[C@H]2O[C@H](COC(C)=O)[C@@H](OC(=O)CC(C)(C)C)[C@H](OC(=O)CC(C)(C)C)[C@H]2OC(=O)CC(C)(C)C)[C@H](OC(=O)CC(C)(C)C)[C@@H](OC(=O)CC(C)(C)C)[C@@H]1OC(=O)CC(C)(C)C	Satisfied
CC(C)(C)CC(=O)OC[C@H]1O[C@@H](O[C@H]2[C@H](OC(=O)CC(C)(C)C)[C@@H](OC(=O)CC(C)(C)C)[C@@H](OC(=O)CC(C)(C)C)O[C@@H]2COC(=O)CC(C)(C)C)[C@H](OC(=O)CC(C)(C)C)[C@@H](OC(=O)CC(C)(C)C)[C@H]1OC(=O)CC(C)(C)C [α-Lactose octa-3,3-dimethyl-butyrate]	Not satisfied

# check: Tg(° C.) < 50 °C for CC(=O)OC[C@H]1O[C@@H](O[C@H]2[C@H](OC(C)=O)[C@@H](OC(C)=O)[C@@H](OC(C)=O)O[C@@H]2COC(C)=O)[C@H](OC(C)=O)[C@@H](OC(C)=O)[C@H]1OC(C)=O [α-Lactose octaacetate, reference compound]
Not satisfied

====

assay: Glass transition temperature (Tg) of derivatized carbohydrates, by DSC; type: physicochemical; details: derivatized carbohydrate without active, Table 5
Could you please report measured Tg(° C.) for the items listed next?
Answers are plain numbers, in °C.

Worked set:
molecule	Tg(° C.), °C
CC(C)(C)C(=O)OC[C@H]1O[C@H](O[C@H]2O[C@H](COC(=O)C(C)(C)C)[C@@H](OC(=O)C(C)(C)C)[C@H](OC(=O)C(C)(C)C)[C@H]2OC(=O)C(C)(C)C)[C@H](OC(=O)C(C)(C)C)[C@@H](OC(=O)C(C)(C)C)[C@@H]1OC(=O)C(C)(C)C [Trehalose octapivalate]	80
CC(=O)OC[C@H]1O[C@@H](O[C@H]2[C@H](OC(C)=O)[C@@H](OC(C)=O)C(OC(=O)C(C)C)O[C@@H]2COC(C)=O)[C@H](OC(C)=O)[C@@H](OC(C)=O)[C@H]1OC(C)=O (stereo partly shown) [Lactose isobutyrate heptaacetate]	60
CC(C)(C)CC(=O)OC[C@H]1O[C@H](O[C@H]2O[C@H](COC(=O)CC(C)(C)C)[C@@H](OC(=O)CC(C)(C)C)[C@H](OC(=O)CC(C)(C)C)[C@H]2OC(=O)CC(C)(C)C)[C@H](OC(=O)CC(C)(C)C)[C@@H](OC(=O)CC(C)(C)C)[C@@H]1OC(=O)CC(C)(C)C [Trehalose octa-3,3-dimethylbutyrate]	46

# ---- query molecule ----
Tg(° C.) for CC(=O)OCC1OC(OC2OC(COC(C)=O)C(OC(C)=O)C(OC(C)=O)C2OC(C)=O)C(OC(C)=O)C(OC(C)=O)C1OC(C)=O (stereo not shown) [Trehalose octaacetate, reference compound] ?
50
